Target: PRMT5-MEP50 enzyme (Homo sapiens)
Construct: One virus expresses full length human PRMT5 with Flag-tag at N-terminus; Flag (N); purchased Charles River (Argenta); host or cells: insect cells (Sf9), baculovirus co-infection
Assay: In vitro assay 1b: high throughput mass spectrometer assay of SAH formation, 1.25 nM enzyme, 120 min
Format: biochemical
Conditions: averaged values; PRMT5-MEP50, 1.25 nM enzyme, 120 min; read-out: pIC50 Assay 1b (converted)
endpointName: IC50 (nM)

I: Nc1ncnc2c1ccn2[C@@H]1O[C@H](COc2cc(Cl)c3cccnc3c2)[C@@H](O)[C@H]1O [Compound 102]
II: Nc1nc2cc(CC[C@H]3C[C@@H](n4ccc5cnccc54)[C@H](O)[C@@H]3O)ccc2cc1Cl [Compound 247]
III: Cc1ccc2ccc(OC[C@H]3O[C@@H](n4ccc5c(N)ncnc54)[C@H](O)[C@@H]3O)cc2n1 [Compound 21]
IV: Nc1nc2cc(CC[C@H]3C[C@@H](n4ccc5c(N)ncnc54)[C@H](O)[C@@H]3O)ccc2cc1F [Compound 159]
## Input Arrange the items listed above so that IC50 rises from first to last. Give the labels in the order specified.
## Output IV, II, I, III

* * *

Target: PRMT5-MEP50 enzyme (Homo sapiens)
Construct: One virus expresses full length human PRMT5 with Flag-tag at N-terminus; Flag (N); purchased Charles River (Argenta); host or cells: insect cells (Sf9), baculovirus co-infection
Assay: In vitro assay 1a: high throughput mass spectrometer assay of SAH formation, 10 nM enzyme, 60 min
Format: biochemical
Details: averaged values, PRMT5-MEP50, 10 nM enzyme, read-out: pIC50 Assay 1a (converted)
endpointName: IC50 (nM)

structure=Cc1c(OC[C@H]2O[C@@H](n3ccc4c(N)ncnc43)[C@H](O)[C@@H]2O)ccc2cccnc12 testsystem="PRMT5-MEP50 enzyme (Homo sapiens)" endpointname=IC50 valueobserved=2510
structure=O[C@@H]1[C@@H](CCc2ccc3ccc(NCC4CC4)nc3c2)C[C@@H](n2ccc3c(Cl)ncnc32)[C@@H]1O testsystem="PRMT5-MEP50 enzyme (Homo sapiens)" endpointname=IC50 valueobserved=10

A: Nc1ncnc2c1ccn2[C@@H]1C[C@H](CCc2ccc3ccc(NC4CC4)nc3c2)[C@@H](O)[C@H]1O
B: Cc1cc2c(N)ncnc2n1[C@@H]1O[C@H](COc2ccc3cccnc3c2)[C@@H](O)[C@H]1O
## Input // compare measured IC50 between A and B ; output the lower one State the label of the item chosen.
## Output A
(A: 0.501 nM, B: 39.8 nM)

* * *

Biological target: PRMT5-MEP50 enzyme (Homo sapiens, UniProt O14744)
Construct: One virus expresses full length human PRMT5 with Flag-tag at N-terminus; Flag (N); purchased Charles River (Argenta); host or cells: insect cells (Sf9), baculovirus co-infection
Sequence (O14744 whole entry): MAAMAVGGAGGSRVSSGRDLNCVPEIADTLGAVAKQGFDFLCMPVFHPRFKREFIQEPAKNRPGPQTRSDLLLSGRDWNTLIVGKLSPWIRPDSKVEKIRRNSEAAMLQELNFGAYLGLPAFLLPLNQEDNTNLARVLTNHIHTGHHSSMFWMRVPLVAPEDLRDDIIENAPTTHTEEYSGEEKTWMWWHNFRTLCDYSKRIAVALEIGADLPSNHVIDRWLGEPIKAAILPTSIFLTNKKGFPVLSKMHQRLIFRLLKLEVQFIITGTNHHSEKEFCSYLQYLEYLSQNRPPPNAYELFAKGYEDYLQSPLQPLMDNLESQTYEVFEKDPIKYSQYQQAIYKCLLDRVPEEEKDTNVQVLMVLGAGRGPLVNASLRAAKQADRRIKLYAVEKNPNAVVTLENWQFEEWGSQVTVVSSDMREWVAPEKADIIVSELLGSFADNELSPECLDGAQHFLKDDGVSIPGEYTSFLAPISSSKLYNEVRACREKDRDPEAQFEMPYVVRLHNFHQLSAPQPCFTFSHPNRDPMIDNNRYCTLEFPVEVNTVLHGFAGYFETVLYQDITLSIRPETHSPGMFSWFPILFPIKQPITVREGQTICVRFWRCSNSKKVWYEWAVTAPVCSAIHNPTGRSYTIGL
Sequence (Q9BQA1 whole entry partner): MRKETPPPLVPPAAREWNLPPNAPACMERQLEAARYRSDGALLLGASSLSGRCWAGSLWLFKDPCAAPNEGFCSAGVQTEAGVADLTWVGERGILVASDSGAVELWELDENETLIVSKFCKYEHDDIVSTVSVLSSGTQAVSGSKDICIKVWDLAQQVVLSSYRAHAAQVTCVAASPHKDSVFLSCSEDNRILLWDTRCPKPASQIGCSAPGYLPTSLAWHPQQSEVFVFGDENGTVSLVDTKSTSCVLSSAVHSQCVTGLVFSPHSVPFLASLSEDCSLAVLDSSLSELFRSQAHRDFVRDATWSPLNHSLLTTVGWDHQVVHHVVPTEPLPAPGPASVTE
Assay: In vitro assay 1b: high throughput mass spectrometer assay of SAH formation, 1.25 nM enzyme, 120 min
Type: biochemical
Conditions: averaged values; PRMT5-MEP50, 1.25 nM enzyme, 120 min; read-out: pIC50 Assay 1b (converted)
endpointName: IC50 (nM)

Example results:
compound="O[C@@H]1[C@H](O)[C@@H](COc2ccc3ccc(NCC4CC4)nc3c2)O[C@H]1n1ccc2cncnc21 [Compound 170]" valueobserved=63.1
compound="Nc1ncc2ccc(CC[C@H]3C[C@@H](n4ccc5c(Cl)ncnc54)[C@H](O)[C@@H]3O)cc2n1 [Compound 215]" valueobserved=39.8
compound="Nc1ncnc2c1ccn2[C@@H]1O[C@H](CCc2ccc3ccncc3c2)[C@@H](O)[C@H]1O [Compound 103]" valueobserved=1260

I: CNc1ncnc2c1ccn2[C@@H]1C[C@H](COc2ccc3cc(Cl)c(N)nc3c2)[C@@H](O)[C@H]1O [Compound 227]
II: Nc1ncnc2c1ccn2[C@@H]1C[C@H](CCc2ccc3ccc(NCC(F)(F)F)nc3c2)[C@@H](O)[C@H]1O [Compound 151]
## Input From the recorded data, which exceeds the other in IC50: I or II ? State the label of the item chosen.
## Output II
(II: 15.8 nM, I: 1.26 nM)

1: Nc1ncnc2c1ccn2[C@@H]1C[C@H](CCc2ccc3cnc(NCC4CC4)nc3c2)[C@@H](O)[C@H]1O [Compound 141]
2: CN(C)Cc1ccc2ccc(OC[C@H]3O[C@@H](n4ccc5c(N)ncnc54)[C@H](O)[C@@H]3O)cc2n1 [Compound 97]
## Input From the recorded data, which exceeds the other in IC50: 1 or 2 ? State the label of the item chosen.
## Output 2

* * *

Target: PRMT5-MEP50 enzyme (Homo sapiens, UniProt O14744)
Construct: One virus expresses full length human PRMT5 with Flag-tag at N-terminus; Flag (N); purchased Charles River (Argenta); host or cells: insect cells (Sf9), baculovirus co-infection
Test: In vitro assay 1a: high throughput mass spectrometer assay of SAH formation, 10 nM enzyme, 60 min
Format: biochemical
Conditions: averaged values, PRMT5-MEP50, 10 nM enzyme, read-out: pIC50 Assay 1a (converted)
endpointName: IC50 (µM)

Example results:
molecule="Nc1ncnc2c1ccn2[C@@H]1O[C@H](COc2ccc3cnccc3c2)[C@@H](O)[C@H]1O [Compound 12]" testsystem="PRMT5-MEP50 enzyme (Homo sapiens, UniProt O14744)" unitofmeasurement=µM valueobserved=1.58
molecule="CNc1ccc2ccc(OC[C@H]3O[C@@H](n4ccc5c(N)ncnc54)[C@H](O)[C@@H]3O)cc2n1 [Compound 185]" testsystem="PRMT5-MEP50 enzyme (Homo sapiens, UniProt O14744)" unitofmeasurement=µM valueobserved=0.00398
molecule="O[C@@H]1[C@H](O)[C@@H](CCc2ccc3ccc(NCC4CC4)nc3c2)O[C@H]1n1ccc2c(Cl)ncnc21 [Compound 138]" testsystem="PRMT5-MEP50 enzyme (Homo sapiens, UniProt O14744)" unitofmeasurement=µM valueobserved=0.00794
molecule="Nc1ncnc2c1ccn2[C@@H]1O[C@H](CCc2ccc3ccc(NCc4ccc(Cl)cc4)nc3c2)[C@@H](O)[C@H]1O [Compound 135]" testsystem="PRMT5-MEP50 enzyme (Homo sapiens, UniProt O14744)" unitofmeasurement=µM valueobserved=0.001

P: Nc1ncnc2c1ccn2[C@@H]1O[C@H](CCc2ccc3ccncc3c2)[C@@H](O)[C@H]1O [Compound 103]
Q: CNc1ccc2ccc(CC[C@H]3O[C@@H](n4ccc5c(Cl)ncnc54)[C@H](O)[C@@H]3O)cc2n1 [Compound 128]
R: Nc1ncnc2c1ccn2[C@@H]1C[C@H](COc2ccc3cc(Cl)cnc3c2)[C@@H](O)[C@H]1O [Compound 222]
## Input Highest IC50 first, then in falling order down to the smallest. Give the labels in the order specified.
## Output P, R, Q

A: Nc1ncnc2c1ccn2[C@@H]1O[C@H](COc2ccc3cc(Br)cnc3c2Cl)[C@@H](O)[C@H]1O [Compound 94]
B: Cc1nc(N)c2ccn([C@@H]3O[C@H](CNc4ccc5cc(Br)cnc5c4)[C@@H](O)[C@H]3O)c2n1 [Compound 53]
## Input // compare measured IC50 between A and B ; output the lower one State the label of the item chosen.
## Output B

* * *

Target: PRMT5-MEP50 enzyme (Homo sapiens, UniProt O14744)
Construct: One virus expresses full length human PRMT5 with Flag-tag at N-terminus; Flag (N); purchased Charles River (Argenta); host or cells: insect cells (Sf9), baculovirus co-infection
Assay: In vitro assay 1a: high throughput mass spectrometer assay of SAH formation, 10 nM enzyme, 60 min
Assay type: biochemical
Details: averaged values, PRMT5-MEP50, 10 nM enzyme, read-out: pIC50 Assay 1a (converted)
endpointName: IC50 (nM)

compound=Nc1ncnc2c1ccn2[C@@H]1O[C@H](CNc2ccc3cccnc3c2)[C@@H](O)[C@H]1O unitofmeasurement=nM valueobserved=3.98
compound=Nc1ncnc2c1ccn2[C@@H]1C[C@H](COc2ccc3cc(Br)cnc3c2)[C@@H](O)[C@H]1O unitofmeasurement=nM valueobserved=25.1
compound=COCc1cnc2cc(OC[C@H]3O[C@@H](n4ccc5c(N)ncnc54)[C@H](O)[C@@H]3O)ccc2c1 unitofmeasurement=nM valueobserved=79.4
compound=Cc1cn([C@@H]2O[C@H](COc3ccc4cccnc4c3)[C@@H](O)[C@H]2O)c2ncnc(N)c12 unitofmeasurement=nM valueobserved=200

a: COc1ccnc2cc(OC[C@H]3O[C@@H](n4ccc5c(N)ncnc54)[C@H](O)[C@@H]3O)ccc12
b: CNc1ccc2ccc(CC[C@H]3C[C@@H](n4ccc5c(C)ncnc54)[C@H](O)[C@@H]3O)cc2n1
## Input // compare measured IC50 between a and b ; output the lower one State the label of the item chosen.
## Output b

* * *

Molecular target: PRMT5-MEP50 enzyme (Homo sapiens, UniProt O14744)
Construct: One virus expresses full length human PRMT5 with Flag-tag at N-terminus; Flag (N); purchased Charles River (Argenta); host or cells: insect cells (Sf9), baculovirus co-infection
Test: In vitro assay 1a: high throughput mass spectrometer assay of SAH formation, 10 nM enzyme, 60 min
Type: biochemical
Details: averaged values, PRMT5-MEP50, 10 nM enzyme, read-out: pIC50 Assay 1a (converted)
endpointName: IC50 (nM)

structure=Cc1ncnc2c1ccn2[C@@H]1O[C@H](COc2ccc3ccc(NCc4ccc(Cl)cc4)nc3c2)[C@@H](O)[C@H]1O endpointname=IC50 valueobserved=3.16
structure=O[C@@H]1[C@H](O)[C@@H](CCc2ccc3ccc(NCc4ccc(Cl)cc4)nc3c2)O[C@H]1n1ccc2c(Cl)ncnc21 endpointname=IC50 valueobserved=12.6
structure=N#Cc1ccc2ccc(OC[C@H]3O[C@@H](n4ccc5c(N)ncnc54)[C@H](O)[C@@H]3O)cc2n1 endpointname=IC50 valueobserved=631
structure=Nc1ncnc2c1ccn2[C@@H]1O[C@H](COc2cc(C(F)(F)F)c3cccnc3c2)[C@@H](O)[C@H]1O endpointname=IC50 valueobserved=1000
structure=Cc1ccc2ccc(OC[C@H]3O[C@@H](n4ccc5c(N)ncnc54)[C@H](O)[C@@H]3O)cc2n1 endpointname=IC50 valueobserved=1260
structure=Nc1ncnc2c1ccn2[C@@H]1O[C@H](COc2ccc3ccncc3c2)[C@@H](O)[C@H]1O endpointname=IC50 valueobserved=794

A: Nc1ncnc2c1ccn2[C@@H]1C[C@H](CCc2ccc3cnc(NCC4CC4)nc3c2)[C@@H](O)[C@H]1O
B: Cc1cnc2cc(CC[C@H]3O[C@@H](n4ccc5c(N)ncnc54)[C@H](O)[C@@H]3O)ccc2c1
## Input // compare measured IC50 between A and B ; output the lower one State the label of the item chosen.
## Output B
(B: 5.01 nM, A: 7.94 nM)

I: Cc1ccnc2cc(OC[C@H]3O[C@@H](n4ccc5c(N)ncnc54)[C@H](O)[C@@H]3O)ccc12
II: Nc1ncnn2c([C@@H]3O[C@H](CCc4ccc5cccnc5c4)[C@@H](O)[C@H]3O)ccc12
III: Cc1ncnc2c1ccn2[C@@H]1O[C@H](CCc2ccc3ccc(NCc4ccc(Cl)cc4)nc3c2)[C@@H](O)[C@H]1O
## Input Hey, can you sort those molecules up there by IC50, smallest first? Give the labels in the order specified.
## Output III, I, II

A: Nc1ncnc2c1ccn2[C@@H]1C[C@H](CCc2ccc3cc(Cl)cnc3c2)[C@@H](O)[C@H]1O
B: Nc1ncnc2c1ccn2[C@@H]1O[C@H](COc2cc3ncc(Br)cc3cc2C(F)(F)F)[C@@H](O)[C@H]1O
C: CC(C)(C)Nc1ccc2ccc(CC[C@H]3C[C@@H](n4ccc5c(N)ncnc54)[C@H](O)[C@@H]3O)cc2n1
D: CNc1ccc2ccc(CC[C@H]3O[C@@H](n4ccc5c(N)ncnc54)[C@H](O)[C@@H]3O)cc2n1
## Input Highest IC50 first, then in falling order down to the smallest. Give the labels in the order specified.
## Output B, A, D, C
(B: 200 nM, A: 12.6 nM, D: 1.58 nM, C: 1 nM)
